Tested on: HMC-1.2 cells
assay.details: 3H-thymidine incorporation assay
Type: cell-based, human
protocol.conditions: Homo sapiens; 24 hours of incubation with drugs; read-out: 3H-thymidine uptake (IC50) HMC-1.2
experimental.endpoint: IC50

Input: Would you kindly share the measured IC50 for `Cc1cn(-c2cc(NC(=O)c3ccc(C)c(Nc4nccc(-c5cccnc5)n4)c3)cc(C(F)(F)F)c2)cn1` ?
Output: 1000 to 3000 nM

---

Tested on: HMC-1.1 cells
assay.details: induction of apoptosis (percentage of apoptotic cells on Wright-Giemsa-stained cytospin slides)
Format: cell-based, human
protocol.conditions: HMC-1.1
experimental.endpoint: induction of apoptosis (in words)

structure.string	study.target	experimental.endpoint	value
Cc1cn(-c2cc(NC(=O)c3ccc(C)c(Nc4nccc(-c5cccnc5)n4)c3)cc(C(F)(F)F)c2)cn1	HMC-1.1 cells	induction of apoptosis (in words)	induce apoptosis
CO[C@@H]1[C@H](N(C)C(=O)c2ccccc2)C[C@H]2O[C@]1(C)n1c3ccccc3c3c4c(c5c6ccccc6n2c5c31)C(=O)NC4	HMC-1.1 cells	induction of apoptosis (in words)	induce apoptosis
Cc1ccc(NC(=O)c2ccc(CN3CCN(C)CC3)cc2)cc1Nc1nccc(-c2cccnc2)n1	HMC-1.1 cells	induction of apoptosis (in words)	induce apoptosis

Data credit: patent US20100184820A1
